// provenance: patent US8933103B2

target_under_test: phosphorylated Axl (pAxl Y702) in NCI-H1299 cells (Homo sapiens, UniProt P30530)
Construct: endogenous in cells
assay_overview: Intracellular Axl Phosphorylation Inhibitory Activity (pAxl, NCI-H1299 cells)
recorded_conditions: 1 h compound incubation, GAS6 stimulation 10 minutes, pAxl (Y702) level
Parameter IC50: see the listing below.

Reference set, count: 5
COc1ccc(-c2cnc(N)c(-c3ccc(NC(=O)c4cn(C[C@H]5COCCO5)cc(-c5ccc(F)cc5)c4=O)cc3)c2)cc1OC | 50 to 100 nM
COc1ccc(-c2cnc(N)c(-c3ccc(NC(=O)c4cn(CC(F)(F)F)cc(-c5ccc(F)cc5)c4=O)cc3)c2)cc1 | 100 to 500 nM
Nc1ncc(-c2ccccc2)cc1-c1ccc(NC(=O)c2cn(CC(F)(F)F)cc(-c3ccc(F)cc3)c2=O)cc1 | 100 to 500 nM
COc1ccc(-c2cnc(N)c(-c3ccc(NC(=O)c4cn(CC(F)(F)F)cc(-c5ccc(F)cc5)c4=O)cc3C)c2)cc1OC | 50 to 100 nM
COC1CN(C(=O)c2cn(Cc3ccc(F)cc3)cc(C(=O)Nc3ccc(-c4cc(-c5cnn(C[C@H]6COCCO6)c5)cnc4N)cc3)c2=O)C1 | 50 to 100 nM

Next up:
Measured IC50, COc1ccc(-c2cnc(N)c(-c3ccc(NC(=O)c4cn(CC(F)(F)F)cc(-c5ccc(F)c(Br)c5)c4=O)cc3)c2)cc1OC : 50 to 100 nM

---

target_under_test: AXL (fusion protein of amino acids 464-885 of the intracellular domain of human AXL with glutathione transferase) (Homo sapiens, UniProt P30530)
assay_overview: Cell-Free Axl Kinase Inhibitory Activity
Parameter IC50: see the listing below.

COc1ccc(-c2cnc(N)c(-c3ccc(NC(=O)c4cn(CCOC5CCCCO5)cc(-c5ccc(F)cc5)c4=O)cc3)c2)cc1OC (racemic) [Example 6] | 1 to 10 nM
COc1ccc(-c2cnc(N)c(-c3ccc(NC(=O)c4cn(CC(F)(F)F)cc(-c5ccc(F)nc5)c4=O)cc3)c2)cc1OC [Example 23] | 1 to 10 nM
CC(C)(O)Cn1cc(C(=O)Nc2ccc(-c3cc(-c4cnn(C[C@H]5COCCO5)c4)cnc3N)cc2)c(=O)c(-c2ccc(F)cc2)c1 [Example 68] | 10 to 20 nM
COc1ccc(-c2cnc(N)c(-c3ccc(NC(=O)c4cn(CC(F)(F)F)cc(-c5cccc(F)c5)c4=O)cc3)c2)cc1OC [Example 22] | 1 to 10 nM
COc1ccc(-c2cnc(N)c(-c3ccc(NC(=O)c4cn(Cc5ccccc5)cc(-c5ccc(F)cc5)c4=O)cc3)c2)cc1OC [Example 10] | 1 to 10 nM

Measured IC50, COc1cn(Cc2ccc(F)cc2)cc(C(=O)Nc2ccc(-c3cc(-c4cnn(C)c4)cnc3N)cc2)c1=O [Example 59] : 10 to 20 nM

Measured IC50, COc1ccc(-c2cnc(N)c(-c3ccc(NC(=O)c4cn(CC(F)(F)OC)cc(-c5ccc(F)cc5)c4=O)cc3)c2)cc1OC [Example 17] : 0.1 to 1 nM

Measured IC50, Cc1ccc(-c2cnc(N)c(-c3ccc(NC(=O)c4cn(CC(F)(F)F)cc(-c5ccc(F)cc5)c4=O)cc3)c2)cc1 [Example 35] : 10 to 20 nM

Measured IC50, COc1cccc(-c2cnc(N)c(-c3ccc(NC(=O)c4cn(CC(F)(F)F)cc(-c5ccc(F)cc5)c4=O)cc3)c2)c1 [Example 33] : 1 to 10 nM

Measured IC50, COc1ccc(-c2cnc(N)c(-c3ccc(NC(=O)c4cn(C(C)C)cc(-c5ccc(F)cc5)c4=O)cc3)c2)cc1OC [Example 4] : 1 to 10 nM

Measured IC50, COc1cc(-c2cnc(N)c(-c3ccc(NC(=O)c4cn(CCF)cc(-c5ccccc5)c4=O)cc3)c2)ccc1OCCN1CCCC1 [Example 40] : 0.1 to 1 nM

Measured IC50, COc1ccnc(N)c1-c1ccc(NC(=O)c2cn(CC(F)(F)F)cc(-c3ccc(F)cc3)c2=O)cc1 [Example 82] : 1 to 10 nM

Measured IC50, COc1ccc(-c2cnc(N)c(-c3ccc(NC(=O)c4cn(CC(F)(F)F)cc(-c5ccc(F)cc5)c4=O)cn3)c2)cc1OC [Example 87] : 1 to 10 nM

---

target_under_test: AXL (fusion protein of amino acids 464-885 of the intracellular domain of human AXL with glutathione transferase) (Homo sapiens, UniProt P30530)
assay_overview: Cell-Free Axl Kinase Inhibitory Activity
pIC50: −log10 of the molar value.
outcome_measure: pIC50

Cn1cc(-c2cnc(N)c(-c3ccc(NC(=O)c4cn(CC(F)(F)F)cc(-c5ccccc5)c4=O)cc3)c2)cn1 | 8.00 to 9.00
COc1ccc(-c2cnc(N)c(-c3ccc(NC(=O)c4cn(CC(F)(F)F)cc(-c5ccc(F)cc5)c4=O)cc3C)c2)cc1OC | 8.00 to 9.00
Nc1ncc(-c2cnn(C[C@H]3COCCO3)c2)cc1-c1ccc(NC(=O)c2cn(CCF)cc(-c3ccc(F)cc3)c2=O)cc1 | 8.00 to 9.00

Measured pIC50, COc1ccc(-c2cnc(N)c(-c3ccc(NC(=O)c4cn(CC(F)(F)F)cc(-c5ccccc5F)c4=O)cc3)c2)cc1OC : 8.00 to 9.00

Measured pIC50, Cc1cc(-c2cnc(N)c(-c3ccc(NC(=O)c4cn(CC(F)(F)F)cc(-c5ccc(F)cc5)c4=O)cc3)c2)ccn1 : 9.00 to 10.00

Measured pIC50, COc1ccc(-c2cnc(N)c(-c3ccc(NC(=O)c4cn(Cc5ccc(F)cc5)cc(C(=O)N5C[C@@H](C)O[C@@H](C)C5)c4=O)cc3)c2)cc1OC : 9.00 to 10.00

Measured pIC50, COc1ccc(-c2cnc(N)c(-c3ccc(NC(=O)c4cn(Cc5ccc(F)cc5)cc(C(=O)N5CCCC5)c4=O)cc3)c2)cc1OC : 9.00 to 10.00

Measured pIC50, COc1ccc(-c2cnc(N)c(-c3ccc(NC(=O)c4cn(CC(F)(F)F)cc(-c5ccc(F)c(Br)c5)c4=O)cc3)c2)cc1OC : 8.00 to 9.00

Measured pIC50, CNC(=O)Cn1cc(C(=O)Nc2ccc(-c3cc(-c4ccc(OC)c(OC)c4)cnc3N)cc2)c(=O)c(-c2ccc(F)cc2)c1 : 9.00 to 10.00

Measured pIC50, CC(=O)N1C2C=C(c3cnc(N)c(-c4ccc(NC(=O)c5cn(CCF)cc(-c6ccc(F)cc6)c5=O)cc4)c3)CC1CC2 (centres unmarked) : 7.64

Measured pIC50, COc1ccnc(N)c1-c1ccc(NC(=O)c2cn(Cc3ccc(F)cc3)cc(C(=O)N3CCCC3)c2=O)cc1 : 7.70 to 8.00

Measured pIC50, Cn1cc(-c2cnc(N)c(-c3ccc(NC(=O)c4cn(Cc5ccc(F)cc5)ccc4=O)cc3)c2)cn1 : 8.00 to 9.00

Measured pIC50, Cc1nnc(-c2cn(Cc3ccc(F)cc3)cc(C(=O)Nc3ccc(-c4cc(-c5cnn(C[C@H]6COCCO6)c5)cnc4N)cc3)c2=O)o1 : 9.00 to 10.00

Measured pIC50, COc1ccc(-c2cnc(N)c(-c3ccc(NC(=O)c4cn(Cc5ccccn5)cc(-c5ccc(F)cc5)c4=O)cc3)c2)cc1OC : 9.00 to 10.00

---

target_under_test: AXL (fusion protein of amino acids 464-885 of the intracellular domain of human AXL with glutathione transferase) (Homo sapiens, UniProt P30530)
Sequence (P30530 464-885 isoform P30530-2): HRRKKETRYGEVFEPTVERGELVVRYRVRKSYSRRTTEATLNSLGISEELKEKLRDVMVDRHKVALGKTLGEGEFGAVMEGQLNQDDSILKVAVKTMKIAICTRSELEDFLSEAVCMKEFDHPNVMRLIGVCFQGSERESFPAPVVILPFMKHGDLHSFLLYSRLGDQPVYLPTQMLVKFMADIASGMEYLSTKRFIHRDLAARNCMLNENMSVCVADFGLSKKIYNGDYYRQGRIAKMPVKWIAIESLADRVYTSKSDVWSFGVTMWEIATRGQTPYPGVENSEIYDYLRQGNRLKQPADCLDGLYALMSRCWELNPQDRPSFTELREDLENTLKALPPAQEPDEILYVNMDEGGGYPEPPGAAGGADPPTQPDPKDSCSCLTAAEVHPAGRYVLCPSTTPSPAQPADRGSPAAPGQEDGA
assay_overview: Cell-Free Axl Kinase Inhibitory Activity
outcome_measure: IC50

Measured IC50, CC(=O)N1CC=C(c2cnc(N)c(-c3ccc(NC(=O)c4cn(CC(F)(F)F)cc(-c5ccc(F)cc5)c4=O)cc3)c2)CC1 [Example 80] : 0.1 to 1 nM

Measured IC50, COc1cc(-c2cnc(N)c(-c3ccc(NC(=O)c4cn(CC(F)(F)F)cc(-c5ccc(F)cc5)c4=O)cc3)c2)ccc1OCCN1CCCC1 [Example 39] : 0.1 to 1 nM

Measured IC50, COc1cc(-c2cnc(N)c(-c3ccc(NC(=O)c4cn(CC(F)(F)F)cc(-c5ccc(F)cc5)c4=O)cc3)c2)ccc1OC[C@H]1COCCO1 [Example 42] : 0.1 to 1 nM

Measured IC50, COc1ccc(-c2cnc(N)c(-c3ccc(NC(=O)c4cn(CCO)cc(-c5ccc(F)cc5)c4=O)cc3)c2)cc1OC [Example 7] : 1 to 10 nM

Measured IC50, COc1cc(-c2cnc(N)c(-c3ccc(NC(=O)c4cn(CCF)cc(-c5ccc(F)cc5)c4=O)cc3)c2)ccc1OC[C@H]1COCCO1 [Example 43] : 1 to 10 nM

Measured IC50, COc1ccc(-c2cnc(N)c(-c3ccc(NC(=O)c4cn(C[C@H]5COCCO5)cc(-c5ccc(F)cc5)c4=O)cc3)c2)cc1OC [Example 14] : 1 to 10 nM

Measured IC50, CCn1cc(C(=O)Nc2ccc(-c3cc(-c4cnn(C[C@H]5COCCO5)c4)cnc3N)cc2)c(=O)c(-c2ccc(F)cc2)c1 [Example 64] : 0.1 to 1 nM

Measured IC50, COc1ncnc(N)c1-c1ccc(NC(=O)c2cn(CC(F)(F)F)cc(-c3ccc(F)cc3)c2=O)cc1 [Example 86] : 1 to 10 nM

Measured IC50, COc1cc(-c2cnc(N)c(-c3ccc(NC(=O)c4cn(CCF)cc(-c5ccccc5)c4=O)cc3)c2)ccc1OC[C@H]1COCCO1 [Example 44] : 1 to 10 nM

Measured IC50, Cn1cc(-c2cnc(N)c(-c3ccc(NC(=O)c4cn(CC(F)F)cc(-c5ccc(F)cc5)c4=O)cc3)c2)cn1 [Example 49] : 1 to 10 nM
